Hey, just so you know, these numbers are from PubChem BioAssay.

# Protocol text: yeast TOR pathway RPL19A-GFP modulators, primary screen, cell-based, S. cerevisiae, multiplex flow cytometry (AID 1862);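 also: lower values mimic rapamycin by blocking the RPL19A rise seen in DMSO cells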
# Assay context: S. cerevisiae RPL19A-GFP strain, flow cytometry fluorescence, 3 h; at 10 µM; active compounds read low
Records with an inconclusive call do not appear.
Reported percent of DMSO control GFP values follow for various compounds
Give the value, in units of %, as a plain number.

Please review the following examples before continuing.
Compound	Unit of measure	percent of DMSO control GFP
NCCCC(=O)O	%	97.8
CC(O)Cn1cnc2c1c(=O)n(C)c(=O)n2C (stereo unspecified)	%	95.1
O=c1[nH]c(=O)n([C@H]2C[C@H](O)[C@@H](CO)O2)cc1F	%	91.1

The measured percent of DMSO control GFP associated with O=C(c1ccc(-c2ccccc2)c(F)c1)C1CCCN(C(=O)c2cncs2)C1 (stereo unspecified) reads 100

The measured percent of DMSO control GFP associated with COc1ccc(CCN(C)CC(=O)Nc2cc(C)nc3ccccc23)cc1OC reads 108

The measured percent of DMSO control GFP associated with O=c1c(-c2ccc3c(c2)OCCO3)coc2cc(OC3OC(CO)C(O)C(O)C3O)ccc12 (stereo unspecified) reads 103
